test system: MDA-N; assay: NCI tumour cell line growth inhibition, 48 h
Record form. Attribute: TGI. Fill in for each entry.

// fetch TGI given entry CN(Cc1cnc2c(N)nc(N)nc2n1)c1ccc(Cl)cc1
> 100 µM

Report TGI for O=C(c1cc2c(c3ccccc13)NC1(CCCCC1)N=C2C(F)(F)F)C(F)(F)F
14.2 µM

Provide only the value of recorded TGI for COc1ccc(/C=C2\C[C@H]3[C@@H]4CCC5=CC(=O)CC[C@]5(C)[C@H]4CC[C@]3(C)C2=O)cc1OC
> 100 µM

Please supply the value of reported TGI for the item CC(C)N(C(C)C)S(=O)(=O)C[C@]12CC[C@H](CC13OCC(CS(=O)(=O)c1ccccc1)O3)C2(C)C (stereo partly specified)
> 100 µM

For N#Cc1c(O)c(/C=N/c2ncccn2)c(=O)n2c1[nH]c1ccccc12 , write its TGI.
> 100 µM

Item CCOC(=O)c1nnc2c(C#N)c(-c3ccccc3)c(C)n2c1N : provide TGI
> 100 µM

----------
tested on: NCI-H460 lung
Please state which outcome applies, choosing from true (1) for active, false (0) for inactive

# lookup: test call for Cc1nn(-c2ccc([N+](=O)[O-])cc2)c2ncnc(N/N=C/c3ccccc3O)c12
true (1)

Assay result, entry COc1cnc2c(c1)C(=O)c1c-2n(CCCNC2=NCCS2)c(=O)c2cc(Cl)ccc12 — outcome?
true (1)

Please indicate how the test categorized CCN1C(=O)N(CC)C2C1NN=c1s/c(=C\c3ccccn3)c(=O)n12 (centres undefined) .
false (0)

Would you mind telling me which call this test gave C[C@]12CC[C@@H]3c4ccc(O)cc4CC[C@H]3[C@@H]1Cc1cnc(N)nc12 ?
false (0)

Field: outcome | Entry: COc1ccc(CC(=O)c2ccc(O)cc2O)cc1
false (0)

Could you please tell me the result logged for COc1cc(OC)c(C(=O)/C=C/c2cccc(C#N)c2)c(OC)c1 in this assay?
false (0)

Per the assay record, what outcome was assigned to CCc1ccc2c(c1)C(=O)c1c-2n(CCCN=[N+]=[N-])c(=O)c2cc(OC)c(OC)cc12 ?
false (0)

Which result was noted for this compound in the test: Cc1ccc(-c2nc3nc(-c4ccccc4)nc(N4CCNCC4)c3o2)cc1
true (1)

Recorded call for [O-]c1ccccc1/C=N/C(/N=C/c1ccccc1[O-])c1ccccc1O.[O-]c1ccccc1/C=N/C(/N=C/c1ccccc1[O-])c1ccccc1O.[Zr+4] ?
false (0)

----------
So I've got a bunch of molecules here, and I need their TGI values.
test system: UO-31 renal; test: NCI tumour cell line growth inhibition, 48 h
Where a SMILES comes first, the peptide text is derived from it. [ ]: non-standard residue; d: D form.

Dear colleague, please send me the reported TGI for NS(=O)(=O)c1ccc(/C=C/c2ccc(O)cc2)cc1 when you can.
36.2 µM

Please give the documented TGI of CC1=C(C(=O)N(C)c2ccc(Cl)c(C(=O)OC(C)C)c2)SCCO1
> 100 µM

Tell me measured TGI for C[CH2][Sn]([CH2]C)([O]C(=O)c1ccccc1F)[O][Sn]([CH2]C)([CH2]C)[O]C(=O)c1ccccc1F please.
> 100 µM

Tell me its TGI given O=C1NOC(c2ccc(O)cc2)(c2ccc(O)cc2)c2ccccc21 as the entry.
> 100 µM

Provide measured TGI value, entry: CC1(C)CC2CC(CC(C)(C)C2=O)C1=O
> 100 µM

Identify TGI associated with the molecule CC(Oc1ccc(OCC2CCCCC2)cc1)C(=O)NCc1ccco1 (stereo not given)
92.3 µM

Report TGI, nothing else, for this molecule: COC(=O)C12OC3CO[Si](C(C)C)(C(C)C)O[Si](C(C)C)(C(C)C)OC3C1Oc1nc(=O)ccn12 (stereo not given)
29.9 µM

Check the records and state TGI for C[C@@H]1CC[C@@]2(OC1)O[C@H]1C[C@H]3[C@@H]4CC[C@H]5C[C@@H](OC6OC(CO)C(OC7OC(CO)C(O)C(OC8OCC(O)C(O)C8O)C7OC7OC(CO)C(O)C(O)C7O)C(O)C6O)[C@H](O)C[C@]5(C)[C@H]4CC[C@]3(C)[C@H]1[C@@H]2C (stereo not given in full)
17.8 µM

Find the measured TGI of OC1CSc2nc3ccccc3n2C1 (stereo not given) and report it.
> 100 µM

Could you please provide reported TGI for Nc1nc(-c2ccco2)cc(-c2ccc(CO)o2)n1 ? Thanks!
> 100 µM

Provide only the value of recorded TGI for Cc1ccc(-c2csc(NC(=O)N3CCN(c4cc5c(cc4F)c(=O)c(C(=O)O)cn5C4CC4)CC3)n2)cc1
> 100 µM

Let me know recorded TGI for COC(=O)C(CC1=C(O)Nc2ccccc2N1)/C(=N/NC(N)=O)C(=O)Nc1ccccc1C (stereo not given) , thanks.
> 100 µM

State, in one line, measured TGI of CC(=O)OC(Cc1c(O)c2c(C)cccc2oc1=O)C(C)(C)O (stereo not given)
> 100 µM

Identify measured TGI associated with COc1ccc2nc3cc(Cl)ccc3c(SCC(=O)Nc3ccccc3-c3ccccc3NC(=O)CSc3c4ccc(Cl)cc4nc4ccc(OC)cc34)c2c1
> 100 µM

Indicate its recorded TGI; the molecule in question is O=C(OCCNC(=O)N1CC1)OCCNC(=O)N1CC1
> 10 µM

State its TGI: COC1=C(C)C(=O)c2c(cc3c(c2O)C(C)(CCC=C(C)C)C(C)O3)C1=O (stereo not given)
> 100 µM

For the molecule O=C1c2ccccc2N2Oc3ccccc3C12c1ccccc1 (stereo not given) , report TGI.
> 100 µM

Please supply the value of reported TGI for the item N#Cc1c(O)c(/C=N/c2ncccn2)c(=O)n2c1[nH]c1ccccc12
> 100 µM

Give reported TGI value for Cc1ccc(Nc2nc3c(=O)n(C)c(=O)n(C)c3nc2Nc2ccc(C)cc2)cc1
24.4 µM

Return TGI (reported value) for this molecule: Cc1nn(C)c(COc2ccc(N3CCN(S(=O)(=O)N(C)C)CC3)cc2)c1-c1cccc2c(CCCOc3cccc4ccccc34)c(C(=O)O)n(CCN3CCOCC3)c12
20.3 µM

Report TGI, nothing else, for this molecule: O=C(Nc1ccc(Cl)cc1)c1cc(S(=O)(=O)Nc2nnc3c(Cl)cc(C(F)(F)F)cn23)c(S)cc1Cl
> 100 µM

Look up TGI of O=[N+]([O-])c1ccc(N2CCC(CCCC3CCN(c4ccc([N+](=O)[O-])cc4[N+](=O)[O-])CC3)CC2)c([N+](=O)[O-])c1 and report it.
26.9 µM

State, in one line, measured TGI of CCc1ccccc1NC(=O)/C(N=O)=C(/C)O
> 100 µM

Please give the documented TGI of COc1ccc(-c2oc3c(OC)c(OC)cc(O)c3c(=O)c2OC)cc1
> 100 µM

Specify reported TGI for the molecule shown: Cc1ccc(N(C)S(=O)(=O)c2ccccc2[N+](=O)[O-])cc1
> 100 µM

Consider the molecule COc1cc(/C=C/C(=O)c2ccc(F)cc2)ccc1OCCCN1CCN(CC(=O)Nc2ccc(Cl)cc2C(=O)c2ccccc2Cl)CC1 and give its recorded TGI.
20 µM

Provide TGI value for the following molecule: CC(=O)O[C@H]1CCC2[C@@H]3CCC4c5nonc5CC[C@]4(C)C3CC[C@@]21C (stereo not given in full)
> 10 µM

Given the molecule COc1cc(OC)c2[nH]c3c(O)c(-c4c(C)cc5c([nH]c6c(OC)cc(OC)cc65)c4O)c(C)cc3c2c1 , write its reported TGI.
13.3 µM

State its TGI for this molecule: CC(C)C[C@H](NC(=O)[C@H](CC(C)C)NC(=O)[C@@H](Cc1c[nH]c2ccccc12)NC(=O)[C@H](Cc1ccccc1)NC(=O)[C@@H](Cc1c[nH]c2ccccc12)NC(=O)[C@H](CCC(N)=O)NC(=O)[C@H](CCC(N)=O)NC(=O)[C@H]1CCCN1C(=O)[C@@H](N)CCCCN)C(N)=O (H-K[dP]QQ[dW]F[dW]LL-NH2)
> 100 µM

Supply measured TGI of O=C(NC(=Nc1ccccc1)SCCSC(=Nc1ccccc1)NC(=O)c1cccs1)c1cccs1 in your reply.
92.8 µM

Note TGI for the molecule shown: Cc1cn2c(/C=C3/C(=O)Nc4ccc(O)cc43)c(C)nc2s1
> 100 µM

For the molecule CN(Cc1cnc2c(N)nc(N)nc2n1)c1ccc(Cl)cc1 , report TGI.
> 100 µM

Look up and report measured TGI for this entry: Cc1ccc(C(=O)N/N=C(\N=Nc2ccc(C(=O)O)cc2)c2ccc(N(CCC#N)CCC#N)cc2C)cc1
> 100 µM

Specify reported TGI for the molecule shown: N#CSCc1ccc(Cl)c(CSC#N)c1
12.8 µM

Given the molecule Nc1ncnc2c1c(-c1ccc(Oc3ccccc3)cc1)nn2C[C@@H]1SSC[C@H]1O , write its reported TGI.
3.55 µM
